# reported TGI; entries follow
Test system: SW-620 colon
Assay: NCI tumour cell line growth inhibition, 48 h

Please review the entries below; each comes with its answer.
[
  {
    "MOLECULE": "O=[N+]([O-])c1ccc(/C=N\\Nc2ccc([N+](=O)[O-])cn2)cc1",
    "TESTED_ON": "SW-620 colon",
    "MEASUREMENT_KIND": "TGI",
    "VALUE_MEASURED": "> 100 µM"
  },
  {
    "MOLECULE": "Cc1cc(C(=O)N[C@@H](CCC(=O)O)C(=O)O)sc1CC[C@@H]1CNc2nc(N)[nH]c(=O)c2C1",
    "TESTED_ON": "SW-620 colon",
    "MEASUREMENT_KIND": "TGI",
    "VALUE_MEASURED": "> 100 µM"
  },
  {
    "MOLECULE": "C/C(=C1/N=C(c2ccccc2)OC1=O)c1ccc(C)cc1",
    "TESTED_ON": "SW-620 colon",
    "MEASUREMENT_KIND": "TGI",
    "VALUE_MEASURED": "> 100 µM"
  },
  {
    "MOLECULE": "COc1cc(/C=C2\\CCCC3C2=Nc2ccccc2NC3c2cc(OC)c(OC)c(OC)c2)cc(OC)c1OC (stereo unspecified)",
    "TESTED_ON": "SW-620 colon",
    "MEASUREMENT_KIND": "TGI",
    "VALUE_MEASURED": "6.77 µM"
  },
  {
    "MOLECULE": "COc1cc(C2=C(C)[C@@H]3CN(CC=C3c3ccc(Cl)cc3)C2)c(S(=O)(=O)O)cc1OC",
    "TESTED_ON": "SW-620 colon",
    "MEASUREMENT_KIND": "TGI",
    "VALUE_MEASURED": "> 100 µM"
  }
]

# input Return reported TGI; argument: O=C1N[C@H]2C(=O)c3c(Cl)sc(Cl)c3[C@H]2O1
# output 5.4 µM

---

Overview of reported TGI across a group of compounds:
System: SF-539 CNS
Assay: NCI tumour cell line growth inhibition, 48 h

Below: 3 compounds and their reported TGI.
[
  {
    "COMPOUND": "CC(=O)OCC1OC(O[C@@H]2C[C@H]3C(C)(C)[C@H](OC(C)=O)CC[C@]3(C)[C@H]3CC[C@]4(C)C(=CC[C@H]4[C@@H](C)C[C@@H](O)[C@H](O)C(C)(C)O)[C@@]32C)C(O)C(O)C1O (some centres undefined)",
    "TESTED_ON": "SF-539 CNS",
    "TGI": "29.9 µM"
  },
  {
    "COMPOUND": "CCOc1ncn(-c2ccc(NC(=S)Nc3cnccn3)cc2)n1",
    "TESTED_ON": "SF-539 CNS",
    "TGI": "> 10 µM"
  },
  {
    "COMPOUND": "CCN(CC)CCOc1ccc(N2Cc3ccccc3C2=O)cc1",
    "TESTED_ON": "SF-539 CNS",
    "TGI": "> 10 µM"
  }
]

Now for a further compound.
# input // map CN(C)CCN1C(=O)c2cccc3c(N)ccc(c23)C1=O to recorded TGI (system: SF-539 CNS)
# output > 25 µM

Values compiled from PubChem BioAssay (NCI).
